# ASSAY OVERVIEW: folding stability dG unfold from trypsin proteolysis; higher = more stable
READOUT NAME: folding stability dG unfold (kcal/mol)
Provide only the numeric value, understood in kcal/mol.

// query Look up folding stability dG unfold: SAGGSAGGSAGMFVERTLEITFVRPPNGPGPEEVEKRAKELQEKNPHLNVKVKVVDPSEASAGGSAGGSAGG [r17_220_JUSTAS]
// result 0.669

// query What does the data say about its folding stability dG unfold? Entry: SAGGSAGGSAKKTLTVKPGQTVTVKNKKTGKTYTATVEKDKDGNLTVKLENGKTYTINLKDLSAGGSAGGSA [r18_169_TrROS_Hall]
// result 0.967

// query Dear colleague, I am looking for the recorded folding stability dG unfold of the following sequence: SAGGSAGGMEEIEIEINGKKAKIYRLPGDEDLFLIEVDGELYLVKVKKKDGKWEIVEVKKLDELSAGGSAGG [r6_915_TrROS_Hall]
// result 4.17

// query folding stability dG unfold for SAGGNWRIVEIPIKFPPGQDLTTIAKEIAKELLPPGEDVSINVEQRPNYMRIYIFYPEDGKPLWEIEISAGG [r13_724_TrROS] ?
// result 1.95

// query Which folding stability dG unfold is reported for this sequence? SAGGSAGGSAGGSSMAIKKVSEFLLRPENGELIKVTVYRKPGPETIVTVIGDKTYTFEPSAGGSAGGSAGGS [r4_114_JUSTAS]
// result -0.855

// query Fill in: folding stability dG unfold of SAGGSAGGSASVEEIADKIQQLHGVDVEVTEPQPNSNGYPRWRIKVDLKGLPEKWMQELLNSAGGSAGGSAG [r3_40_TrROS] is ___
// result 0.681

// query Recorded folding stability dG unfold of MNVTINITVLSPDSSGYTMKATVTFPETPVTTSKEYKTSDPVSAVEEIIKELVDEENLSNATVTTYPSSRLS [r1_399_JUSTAS] , please.
// result -0.562

// query Return reported folding stability dG unfold; argument: SAGNPVLLKRPFIDPENGEPVYELTLFDPESNIVTTLFFNSDGKVIAVAVAYVPPETDEVDIELSVFDGSAG [r5_747_TrMRF]
// result 1.52

// query Bench note: what folding stability dG unfold did SAGGSAGGSAGGKVITVELPDDVTVTFFIPEDPDIVPVEVTPPDGSTLTLPAKDIRELLGSAGGSAGGSAGG [r7_769_TrMRF] show?
// result 0.159

// query Look up folding stability dG unfold: SADIKIDDIETQENPDGYEWYMITINFPDPKKFKEKLKKHGVNPEWDPNDPDQVEIWFPREDIQEILKLSAG [r14_777_TrROS]
// result 0.328

// query Field request: folding stability dG unfold | item: SAGALEETTLPLPRPESLPDVSPEVLAALILALLSAVGVTVEVLSSDPANPVTAMVATRDGRVVLRALASAG [r5_80_JUSTAS]
// result 1.58

// query Entry SAGGSAGGSPANIKITTTLDTETGYLTIVAYNPATGKVTVLTAKIYGNVPHIDGLEALFGALGSAGGSAGGS [r20_131_TrMRF] : reported folding stability dG unfold = ?
// result 2.07

// query Need folding stability dG unfold of SAGGSAGGNVILVETGPDGRARVLVFDPETGKVTEYEVPADDLDAIEAIAADKVDLVIVRPVGPSAGGSAGG [r6_639_TrMRF] , thanks.
// result 1.75

// query Query (sequence): SAGGKSVKVSLPKEALKKAKENEKVVITLPDGTKREAILVRGGDSVPVFVVNPDNPEEAEYVGEATVGSAGG [r13_745_TrMRF] ; field requested: folding stability dG unfold
// result -0.503

// query Look up folding stability dG unfold for this sequence: GSAGVMFGSREDIEALAAALGPDVAPTDVTYDPSGYYYYTIPLPDGTPTSLTIPPDKYSPEEVAALARRLTS [r1_279_JUSTAS]
// result -0.346

// query If you can, please state the reported folding stability dG unfold value of SAGGKPGKWRKVEIWLPPDMPDIIEEIAKNWPNVNVDTERHPENGWYPVTGYFPDPNGKPVAKIHIWSAGGS [r8_267_TrROS] .
// result 0.185

// query Name the reported folding stability dG unfold value associated with the sequence SAGGNSMTILFIFPENGWIIRITIKFPDGNGKIDDIDIEREPVPNGQVKYTIRMPDGMEISVEIIPLDSAGG [r13_515_TrROS]
// result 3.99

// query Could you tell me which folding stability dG unfold is on file for SAGGSAGGSAGSLELEFEFPKDTPLDKIIEELKKLIPEKDPKIEILKVEEKEGGLWIKARVSSAGGSAGGSA [r18_360_TrMRF] ?
// result 3.55

// query Tell me the measured folding stability dG unfold of SAKYYFITVEIYMRTGGGPRKMDITVMIPPEEMPPEDVKEIAKEIADWLAEHHPGFEVKVTIIPPDDMKSAG [r14_723_TrROS] , please.
// result 2.39

// query Sample SAGGSAGGGMPSITLLETVEEKLPGSRTRVTTLSYDPATGNLVVTTTTFASPGTSTTSTTVLPPSAGGSAGG [r6_745_JUSTAS] — what was its folding stability dG unfold?
// result 1.13

// query Find the recorded folding stability dG unfold belonging to SAGGSAGGSMELVIKTVTVNSPSKSPEELAKEIEEKYGVKILKVEVTEDPEGGVTVTATIINKSAGGSAGGS [r12_359_JUSTAS] and report it.
// result 1.72

// query For the sequence SAGGSAGGSAGGSMLPPDTTVTSTTFLPNGTVVNTTTTYTATPDDTYTVTTTTTTTPLTSSAGGSAGGSAGG [r7_249_JUSTAS] , what folding stability dG unfold is on record?
// result 0.765

// query Using the record for KTVMIMFKNPEQILNQLREARDDGKTVSIMFPDEWINELKNLGFKIDKITDVQPMPGNDSYMVEIKIKPKDS [r1_173_TrROS] , report its folding stability dG unfold.
// result 1.29

// query What does the record list as folding stability dG unfold for SAGGSAGGSAGGRKLAIKIEIEEVKTETRIRPDGKTETRTELRIKIEIRPVPHPDDPELLSAGGSAGGSAGG [r7_523_TrROS_Hall] ?
// result 2.99

// query Return reported folding stability dG unfold; argument: SAGGSAGGSAGKKKIKLLIFDKKTNKLYVVEVELTKDGKIKITKIKEIYEVKPGEKLKLLSAGGSAGGSAGG [r11_750_TrROS_Hall]
// result 0.981

// query Please look up its folding stability dG unfold: SAGGSAGGSAGGMTIVIVVPAENLTPEEIAELLREAGYEVTVERREDGYLVVTVRLPEPSAGGSAGGSAGGS [r10_1254_TrROS_Hall]
// result 3.5

// query Look up folding stability dG unfold for this sequence: SAGGSAGGGMPPVVTTEISVEEVRPDERDENGNRYFLVTTTLTFPDSTVTTERWLEEEELEELLSAGGSAGG [r6_724_JUSTAS]
// result 1.3
